These measurements were taken from ChEMBL document CHEMBL2016506.

# System: SK-BR-3
# experimental_details: Cytotoxicity against human SKBR3 cells after 24 hrs by alamar blue assay
# Assay type: functional, cell-based
# experimental_setup: SK-BR-3, 24 h
readout_type: IC50 (µM)
Write the number in µM without appending the unit.

Given CC(=O)Oc1ccccc1C(=O)O[C@@H]1[C@@H](O)[C@@H](O)O[C@H](CO)[C@H]1O , state its recorded IC50.
201

====

# System: WI-38
# experimental_details: Cytotoxicity against human WI38 cells after 24 hrs by alamar blue assay
# Format: cell-based
# experimental_setup: WI-38, 24 h
readout_type: IC50

IC50 lookup needed for CC(=O)Oc1ccccc1C(=O)O[C@@H]1[C@@H](O)[C@@H](O)O[C@H](CO)[C@H]1O , thanks.
376 µM

====

# System: PC-3
# experimental_details: Cytotoxicity against human PC3 cells after 24 hrs by alamar blue assay
# Format: functional, cell-based
# experimental_setup: PC-3, 24 h
Let's look at some compounds and their measured pIC50.
Hey, just a heads up that pIC50 is the negative log base 10 of the concentration in molar.

>  <chem_smiles>
CC(=O)Oc1ccccc1C(=O)O

>  <pIC50>
3.11

$$$$

API: the following record is the query input.
So what does the record say about pIC50 for CC(=O)Oc1ccccc1C(=O)O[C@@H]1[C@@H](O)[C@@H](O)O[C@H](CO)[C@H]1O ?
4.08
